Tested on: SK-MEL-5 melanoma
Experiment: NCI-60 one-dose screen, 48 h
Conditions: 10 µM unless noted
Protocol: Growth inhibition of the SK-MEL-5 human tumor cell line is measured as a screen for anti-cancer activity. Cells are grown in 96 well plates and exposed to the test compound for 48 hours. Compounds are tested at a single concentration, which is 10^-5 M for most compounds. The reported endpoint is percent growth (GI% or GIPRCNT), where numbers from 0 - 100% represent growth inhibition, and numbers from -100% - 0 represent cell death. For example, a value of 40 represents 60% growth inhibition. […]
This is part of a sample that, as a whole, favours compounds with a hit. Of some 83,000 tested, about 20% had one in any assay. The source made the active and inactive calls. The calls were made as follows: active = growth percent below 10; inactive = the rest.
Respond using exactly one of the listed classes: yes (1) for active, no (0) for inactive

Dear all, I need the recorded test outcome for `C[C@H](Nc1nc(NCCc2ccccc2)nc2ccccc12)c1ccccc1` , thank you.
yes (1)

Outcome logged for Cc1ccccc1[C@H]1C(C(=O)c2ccc(Cl)cc2)C2(N[C@@H]1c1ccccc1)C(=O)Nc1ccccc12 (stereo partly drawn) in this assay:
yes (1)

What classification did CC1(C)CC[C@]2(C(=O)Nc3ccccc3)CC[C@]3(C)C(=CCC4[C@@]5(C)C[C@@H](O)[C@H](O)[C@@](C)(CO)C5CC[C@]43C)C2C1 (stereo partly drawn) end up with in this test?
no (0)

For `CCOc1ccc(-c2c(C#N)c(-c3ccc(Cl)cc3)nc3n[nH]c(-c4ccc(Cl)cc4)c23)cc1OC` , which call appears in the assay record?
no (0)

For C=C1CC[C@@H]2[C@]3(C)COC(c4ccccc4)O[C@@H]3CC[C@@]2(C)[C@@H]1C/C=C1/C(=O)OCC1OC(C)=O (stereo partly drawn) , which call appears in the assay record?
yes (1)

I would be grateful if you could indicate the recorded call for `CCCSc1nc(NCCc2c[nH]c3ccccc23)c(C#N)c(-c2ccc(OC)cc2)n1` .
no (0)

Short answer needed: outcome of this test for `COc1cc(-c2cc(-c3cccc(OCC(=O)O)c3)[nH]c(=O)c2C#N)cc(OC)c1OC` ?
no (0)

Call for entry `O=C(N=Nc1c(O)[nH]c2ccc(Cl)cc12)c1ccc2nc(-c3ccccc3)[nH]c2c1` :
no (0)
